Each record here notes measured koff.
Molecular target: T1, human IL-11 (AAH12506.1, Pro22-Leu199) (human, UniProt P20809 22-199)
T1 construct: The range Pro22-Leu199 counts on AAH12506.1; The Octet runs say only 'human IL-11'; also called hIL-11
T1 chain: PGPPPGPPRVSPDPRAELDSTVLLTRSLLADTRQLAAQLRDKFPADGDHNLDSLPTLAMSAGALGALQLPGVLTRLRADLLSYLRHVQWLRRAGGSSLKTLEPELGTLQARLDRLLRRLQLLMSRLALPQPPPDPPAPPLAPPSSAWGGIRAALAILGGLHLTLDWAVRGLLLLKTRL
Test: BLI (Octet), antibody captured, human IL-11 in solution

binder: hz8C8-VHm1 + hz8C8-VLm7-m1 (antibody, human IgG1, kappa, V domains shown, human IgG1 constant regions) VH: EVQLVESGGGLVQPGGSLRLSCAASGFTFSSFGMHWVRQAPGKGLEWVAYITPGSNTIYYADTVKGRFTISRDNAKNSLYLQMNSLRAEDTAVYYCAREYYSYDEGFAYWGQGTLVTVSS VL: EIVLTQSPATLSLSPGERATLSCSVSDLIPSQYLHWYQQKPGQAPRLLIYRASNLASGIPARFSGSGSGTDFTLTISSLEPEDFAVYYCQQGVDVPFTFGQGTKLEIKR
koff / s⁻¹: 0.000136
//
binder: hz8C8-VHm1 + hz8C8-VLm5 (antibody, human IgG1, kappa, V domains shown, human IgG1 constant regions) VH: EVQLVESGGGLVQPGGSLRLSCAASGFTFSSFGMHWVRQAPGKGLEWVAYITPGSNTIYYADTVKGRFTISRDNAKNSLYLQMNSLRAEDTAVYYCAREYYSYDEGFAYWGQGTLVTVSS VL: EIVLTQSPATLSLSPGERATLSCSVSELLSTNYLHWYQQKPGQAPRLLIYRTSNLASGIPARFSGSGSGTDFTLTISSLEPEDFAVYYCQQGVDVPFTFGQGTKLEIKR
koff / s⁻¹: 0.000406
//
binder: hz8C8-VHm1-m9 + hz8C8-VLm7-m2 (antibody, human IgG1, kappa, V domains shown, human IgG1 constant regions) VH: EVQLVESGGGLVQPGGSLRLSCAASGFTFSSFGMHWVRQAPGKGLEWMGYITPGSNTIYYADTVKGRFTISRDNAKNSLYLQMNSLRAEDTAVYYCAREYYSYDEGFAYWGQGTLVTVSS VL: EIVLTQSPATLSLSPGERATLSCSVSDLIPSQYLHWYQQKPGQAPRLLIYDASNLASGIPARFSGSGSGTDFTLTISSLEPEDFAVYYCQQGVDVPFTFGQGTKLEIKR
koff / s⁻¹: 2.14e-05
